Target: T1, Human PD-L1/CD274 with C-Fc Tag (hPD-L1-Fc) (human, UniProt Q9NZQ7 19-238)
T1 construct: range 19-238; ACRO Biosystem PD1-H5258, made in HEK293; also called human PD-L1-Fc; not shown: Fc fragment of human IgG1 at C-terminus
T1 sequence (Q9NZQ7 19-238 limits assumed): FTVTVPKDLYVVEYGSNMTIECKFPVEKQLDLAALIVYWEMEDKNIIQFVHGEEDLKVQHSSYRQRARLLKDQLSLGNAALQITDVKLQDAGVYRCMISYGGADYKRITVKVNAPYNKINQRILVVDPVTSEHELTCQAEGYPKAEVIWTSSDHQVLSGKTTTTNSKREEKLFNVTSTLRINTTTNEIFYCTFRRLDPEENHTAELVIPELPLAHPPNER
Experiment: blocking ELISA on coated hPD-L1-Fc; blocked ligand: biotinylated hPD-1-N297A
Each item that follows carries a reported IC50 (read off the curve).

binder: 23F11-H6L6 (antibody, V domains shown, produced in 293 cells; light chain constant region not described; also called humanized 23F11 H6L6) VH: QVQLVQSGAEVKKPGASVKVSCKASGYIFTTYWMHWVRQAPGQGLEWIGMIQPNSGGTKYNEKFKKKATLTVDTSISTAYMELSRLRSDDTAVYYCARGAGTVDYFDYWGQGSTLTVSS VL: DIVLTQSPASLAVSVGQRATITCRASESVDIYGNSFMHWYQQKPGQPPKLLIYRASNLESGIPARFSGSGSRTDFTLTINPVEANDTATYYCHQSTEDPYTFGGGTKLEIK
IC50 (read off the curve): ~0.05 µg/mL
--
binder: 4B6-H4L3 (antibody, V domains shown, Humanized; also called humanized 4B6 H4L3) VH: QVQLVQSGAEVKKPGASVKVSCKASGYVFTDYYMNWVRQAPGQGLEWIGDINPNNGGTSYNQKFQGRVTVTVDTSIRTAYMELSRLRSDDTAVYYCVKWGDGPFAYWGQGTLVTVSS VL: DIQMTQSQSSLSASVGDRVTITCQASQNVGAAVAWYQQKPGKAPKLLIYSASNRYTGVPSRFSGSGSGTDFTLTISSMQPEDIATYFCQQYSNYPTFGSGTKLGIK
IC50 (read off the curve): ~0.03 µg/mL
--
binder: 23A11-H5L3 (antibody, V domains shown, produced in 293 cells; also called humanized 23A11 H5L3) VH: LVQLVQSGAEVKKPGASVKVSCKASGYIFTTYWIHWVRQAPGQGLEWIGMIQPNSGGTKYNDQFKNRVTLTVDTSISTAYMELSRLRSDDTAVYYCARGAGTVDYFDYWGQGTTLSISS VL: DIVLTQSPASLAVSVGQRATITCRASESVDIYGNSFMHWYQQKPGQSPKLLIYRASNLESGIPARFSGSGSRTDFTLTINPVEANDTATYYCHQSNDDPYTFGGGTKLETK
IC50 (read off the curve): ~0.05 µg/mL

Reference for the values: patent US20210009693A1
